Data origin, for the record: patent US20250027068

Answer each item with its documented Enzyme Activity Endpoint Assay: scIgG.
target: pooled human IgG (human IgG1,2,3 and 4)
Write the answer as a number in ng/µL, unit excluded.

// query Enzyme Activity Endpoint Assay: scIgG value for entry PRT-682 (protein) MQITSVWTKGVTPLTPEQFRNNNEDVIHAPYLANQGWYDITKTFNGKDNLLCGAATAGNMLHWWFDQNKTEIEAYLKKHPEKQKIIFNNQELFDLKKAIDTKDSQTNSQLFNYFRDKAFPNLSARQLGVMPDLVLDMFINGYYLNVFKTQSTDVNRPYQDKDKRGGIFDAVFTRGDQTTLLTSRHDLKNKGLNEISDIIKQELTEGKALALSHTYANVSISHVINLWGADFNAEGNLEAIYVTDSDANASIGMKKYFVGVNAHGKVAISAKKIEGENIGAQVLGLFTLSSGKDIWQKLSLEHHHHHH
0

Next up: PRT-670 (protein) MQITSVWTKGVTPLTPEQFRNNNEDVFHAPYLPNQGWYDITKAFNGKDNLLCGAATAGNMLHWWFDQNKEEIEAYLKKYPEKQKIIFNNQELFDLRKAINTKDSQTNSALFNYFRDKAFPNLSARQLGVMPDHVLDMFINGYYLNVGKTQSTDVNRPYQDKDKRGGIFDHVFNRGDQTKLLTARHDLKNKTLNDISTLIKQELSSGKALALSHTYANVGISHVINLWGADFNAEGNLEAIYVTDSDDRASIGMKKYYVGRNASGHVAISAKKIEGENLGAQVLGLFTLSSGKEIWQKLSLEHHHHHH
798

Next up: PRT-317 (protein) MTITSVWTKGVTPPTPEDFRENNEDVLHAPYVANQGWYDITKTFDGKDNLLCGAATAGNMLHWWFDQNKEEIERYLKKHPEKQKIIFNNQELFDVKAAIDTKDSQTNSKLFNYFRDKAFPNLSARQLGVMPDLVLDMFINGYYLNLGKTQSTDVNRPYQDKDKRGGIFDAVFTRGDQTTLLTARHDLKNKGLNEISDLIKQELTEGKALALSHTYANVRINHVINLWGADFDAEGNLIAIYVTDSDANASIGMKKYFVGRNANGKVAISAKKIEGDNIGAQVLGLFTLSLGQDIWQKLS
0

Next up: PRT-92 (protein) MANQEIRYSEVTPYTITSVWTKGVTPPADFTQGEDVFHAPYVANQGWYDITKTFNGKDDLLCGAATAGNMLHWWFDQNKEKIEAYLKKHPEKQKIMFGDQELLDVRKAINTKDDQTNSELFNYFRDKAFPNLSARRLGVMPDLVLDMFINGYYLNVYKTQTTDVNRTYQEKDKRGGIFDAVFTRGDQSKLLTSRHDFKEKNLKEISDLIKQELTEGKALGLSHTYANVRINHVINLWGADFDSEGNLKAIYVTDSDSNASIGMKKYFVGVNSAGKVAISAKEIKEDNIGAQVLGLFTLSTGQDIWNQTN
6
